- TARGET_UNDER_TEST: Nuclear receptor coactivator 3 (Homo sapiens) (UniProt Q9Y6Q9)
- Sequence (Q9Y6Q9 whole entry, looked up, the tested form may be a part): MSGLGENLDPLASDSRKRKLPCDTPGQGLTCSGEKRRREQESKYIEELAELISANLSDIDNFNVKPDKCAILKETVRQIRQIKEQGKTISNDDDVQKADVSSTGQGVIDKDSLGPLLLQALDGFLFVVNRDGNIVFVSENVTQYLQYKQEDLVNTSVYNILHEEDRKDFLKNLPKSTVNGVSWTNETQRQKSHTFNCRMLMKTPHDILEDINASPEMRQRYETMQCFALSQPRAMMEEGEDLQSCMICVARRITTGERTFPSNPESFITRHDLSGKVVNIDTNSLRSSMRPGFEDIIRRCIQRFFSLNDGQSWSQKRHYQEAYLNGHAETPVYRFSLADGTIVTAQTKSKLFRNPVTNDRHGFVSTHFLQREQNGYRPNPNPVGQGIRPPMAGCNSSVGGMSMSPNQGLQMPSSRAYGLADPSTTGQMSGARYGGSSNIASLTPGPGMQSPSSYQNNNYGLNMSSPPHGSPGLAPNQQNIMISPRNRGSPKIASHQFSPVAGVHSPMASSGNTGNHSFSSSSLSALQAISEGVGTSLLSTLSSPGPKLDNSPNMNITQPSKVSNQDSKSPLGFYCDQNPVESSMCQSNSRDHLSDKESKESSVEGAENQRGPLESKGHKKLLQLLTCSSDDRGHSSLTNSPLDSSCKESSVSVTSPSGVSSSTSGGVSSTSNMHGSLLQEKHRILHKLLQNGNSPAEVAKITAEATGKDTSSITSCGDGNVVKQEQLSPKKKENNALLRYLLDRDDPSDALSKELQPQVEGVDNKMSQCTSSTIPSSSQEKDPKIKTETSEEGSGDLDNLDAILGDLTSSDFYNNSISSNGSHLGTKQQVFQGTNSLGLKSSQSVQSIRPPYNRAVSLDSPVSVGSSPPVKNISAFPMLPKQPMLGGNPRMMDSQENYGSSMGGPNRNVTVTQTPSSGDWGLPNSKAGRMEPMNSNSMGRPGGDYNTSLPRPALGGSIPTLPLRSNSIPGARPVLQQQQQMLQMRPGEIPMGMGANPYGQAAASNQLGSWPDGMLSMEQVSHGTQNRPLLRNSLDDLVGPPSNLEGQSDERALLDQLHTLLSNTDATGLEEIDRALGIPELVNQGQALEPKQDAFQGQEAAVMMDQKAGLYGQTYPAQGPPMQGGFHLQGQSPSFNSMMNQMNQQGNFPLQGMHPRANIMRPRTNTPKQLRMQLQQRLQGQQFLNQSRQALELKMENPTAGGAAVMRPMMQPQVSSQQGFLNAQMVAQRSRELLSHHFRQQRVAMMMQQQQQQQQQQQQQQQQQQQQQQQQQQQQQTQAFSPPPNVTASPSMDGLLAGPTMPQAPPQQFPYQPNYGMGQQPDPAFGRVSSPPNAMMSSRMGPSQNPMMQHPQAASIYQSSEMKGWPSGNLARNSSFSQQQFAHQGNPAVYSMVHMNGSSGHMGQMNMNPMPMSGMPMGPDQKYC
- EXPERIMENT_NOTES: SRC3 (NCOA3) coactivator inhibitors, late-stage follow-up, cell-based, HEK293, GAL4-SRC3 luciferase, powder samples (AID 651788)
- CONDITION_INFO: HEK293 GAL4-SRC3 luciferase reporter, luminescence
Calls of active or inactive are those of the source.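 The calls were made as follows: active = IC50 for SRC3 coactivator inhibition, the dose giving half inhibition, at or below 10 µM; inactive = IC50 above 10 µM.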
Outcome (select one): active, inactive

Examples with answers:
COMPOUND | TARGET_UNDER_TEST | LABEL
Cc1ccc(OCC(=O)c2cc(C)n(-c3ccccc3)c2C)c([N+](=O)[O-])n1 | Nuclear receptor coactivator 3 (Homo sapiens) (UniProt Q9Y6Q9) | inactive
O=C(COC(=O)c1ccc[nH]c1=O)Nc1ccc(N2CCCCC2)cc1 | Nuclear receptor coactivator 3 (Homo sapiens) (UniProt Q9Y6Q9) | active
O=C(Nc1ccccc1Oc1ccccc1)c1cc([N+](=O)[O-])ccc1Cl | Nuclear receptor coactivator 3 (Homo sapiens) (UniProt Q9Y6Q9) | active
CC(C)(C)c1ccc(-c2noc(CCC(=O)Nc3cccnc3)n2)cc1 | Nuclear receptor coactivator 3 (Homo sapiens) (UniProt Q9Y6Q9) | inactive

stdin: What outcome does the record of this test show for CN1C(=O)C2(C(C#N)=C(N)N(c3cc(Cl)cc(Cl)c3)C3=C2C(=O)CCC3)c2ccccc21 (stereo not given) ?
stdout: active
